Origin of measurements: paper PMC5789271

test system: Caco-2 cells; assay: Caco-2 cell transport bioassay (Caco-2/HepG2 co-culture, 2 h); type: in vitro ADME, human; set-up: concentration or dose not given beside the values; conditions: control digesta, basolateral chamber after 2 h
observation type: Percentage of Control Value at 0 h, B (2 h)

[[record]]
molecule = "O=C(O)c1ccccc1 [Benzoic acid]"
study_system = "Caco-2 cells"
result = "+"

[[record]]
molecule = "O=C(O)CCc1ccccc1 [Phenylpropanoic acid]"
study_system = "Caco-2 cells"
result = "-"

[[record]]
molecule = "O=C(O)Cc1cccc(O)c1 [3-Hydroxyphenylacetic acid]"
study_system = "Caco-2 cells"
result = "-"

[[record]]
molecule = "O=C(O)CCc1ccc(O)c(O)c1 [Dihydrocaffeic acid, 3-(3′,4′-Dihydroxyphenyl)propionic acid]"
study_system = "Caco-2 cells"
result = "26%"


QUERY: Using the record for O=C(O)CCc1cccc(O)c1 [3-Hydroxyphenylpropionic acid, 3-(3-Hydroxyphenyl)propionic acid] , state its measured Percentage of Control Value at 0 h, B (2 h).
RESULT: -

----------
test system: Caco-2 cells; assay: Caco-2 cell transport bioassay (Caco-2/HepG2 co-culture, 2 h); assay type: in vitro ADME, human; parameters: concentration or dose not given beside the values; settings: control digesta, apical chamber after 2 h
What Percentage of Control Value at 0 h, A (2 h) was measured for each of the following?
Give bare numbers, in %.

Sample records with Percentage of Control Value at 0 h, A (2 h):
[[record]]
molecule = "O=C(O)CCc1cccc(O)c1 [3-Hydroxyphenylpropionic acid, 3-(3-Hydroxyphenyl)propionic acid]"
uom = "%"
readout_number = 90

[[record]]
molecule = "O=C(O)Cc1cccc(O)c1 [3-Hydroxyphenylacetic acid]"
uom = "%"
readout_number = 100

[[record]]
molecule = "O=C(O)CCc1ccccc1"
uom = "%"
readout_number = 100


Shift focus to the following entry.
QUERY: Using the record for O=C(O)CCc1ccc(O)c(O)c1 [Dihydrocaffeic acid, 3-(3′,4′-Dihydroxyphenyl)propionic acid] , state its measured Percentage of Control Value at 0 h, A (2 h).
RESULT: 26

----------
tested on: HepG2 cells; assay: HepG2 cell metabolism bioassay (basolateral chamber, further 3 h); details: control digesta, basolateral chamber after 3 h with HepG2 cells (t = 5 h)
observation type: Percentage of Basolateral Value, B (5 h)

Sample records with Percentage of Basolateral Value, B (5 h):
[[record]]
molecule = "O=C(O)c1ccccc1 [Benzoic acid]"
result = "+"

[[record]]
molecule = "O=C(O)CCc1ccc(O)c(O)c1 [Dihydrocaffeic acid, 3-(3′,4′-Dihydroxyphenyl)propionic acid]"
result = "123%"

[[record]]
molecule = "O=C(O)CCc1ccccc1 [Phenylpropanoic acid]"
result = "-"

[[record]]
molecule = "O=C(O)Cc1cccc(O)c1 [3-Hydroxyphenylacetic acid]"
result = "-"


Shift focus to the following entry.
QUERY: Using the record for O=C(O)CCc1cccc(O)c1 [3-Hydroxyphenylpropionic acid, 3-(3-Hydroxyphenyl)propionic acid] , state its measured Percentage of Basolateral Value, B (5 h).
RESULT: -

----------
test system: HepG2 cells; assay: HepG2 cell metabolism bioassay (basolateral chamber, further 3 h); conditions: PRPE digesta, basolateral chamber after 3 h with HepG2 cells alone (t = 5 h), relative to basolateral value at 2 h
What Percentage of Basolateral Value, B (5 h) was measured for each of the following?
Answers are plain numbers, in %.

[[record]]
compound = "COc1cc(CCC(=O)O)ccc1O [Dihydroferulic acid]"
readout_number = 78


Go through the list and state Percentage of Basolateral Value, B (5 h) for each entry.
1. O=C(O)c1cccc(O)c1 [3-Hydroxybenzoic acid]
2. O=C(O)CCc1cccc(O)c1 [3-Hydroxyphenylpropionic acid, 3-(3-Hydroxyphenyl)propionic acid]
3. O=C(O)CCc1ccc(O)c(O)c1 [Dihydrocaffeic acid, 3-(3′,4′-Dihydroxyphenyl)propionic acid]
4. O=C(O)/C=C/c1ccc(O)cc1 [Coumaric acid]
5. COc1cc(/C=C/C(=O)O)ccc1O [Ferulic acid]

RESULT:
100
233
338
212
166

----------
What Fold increase of basolateral concentration after HepG2 incubation was measured for each of the following?
system: HepG2 cells; test: HepG2 cell metabolism bioassay (basolateral chamber, further 3 h); details: PRPE digesta, 3 h with HepG2 cells, relative to initial basolateral value
Answers are plain numbers, in fold.

[[record]]
compound = "O=C(O)CCc1cccc(O)c1 [3-Hydroxyphenylpropionic acid, 3-(3-Hydroxyphenyl)propionic acid]"
study_system = "HepG2 cells"
readout_number = 2.3


Shift focus to the following entry.
QUERY: Give the observed Fold increase of basolateral concentration after HepG2 incubation of `COc1cc(/C=C/C(=O)O)ccc1O` for HepG2 cells.
RESULT: 1.6

----------
tested on: Caco-2 cells; experiment: Caco-2 cell transport bioassay (Caco-2/HepG2 co-culture, 2 h); format: in vitro ADME, human; details: PRPE digesta 10% (v/v), basolateral chamber after 2 h
observation type: Percentage of Digesta Value, B (2 h) (%)
One number for each entry, in %.

[[record]]
compound = "O=C(O)CCc1cccc(O)c1 [3-Hydroxyphenylpropionic acid, 3-(3-Hydroxyphenyl)propionic acid]"
study_system = "Caco-2 cells"
observation_type = "Percentage of Digesta Value, B (2 h)"
readout_number = 4

[[record]]
compound = "O=C(O)/C=C/c1ccc(O)cc1 [Coumaric acid]"
study_system = "Caco-2 cells"
observation_type = "Percentage of Digesta Value, B (2 h)"
readout_number = 3

[[record]]
compound = "O=C(O)CCc1ccc(O)c(O)c1 [Dihydrocaffeic acid, 3-(3′,4′-Dihydroxyphenyl)propionic acid]"
study_system = "Caco-2 cells"
observation_type = "Percentage of Digesta Value, B (2 h)"
readout_number = 15

[[record]]
compound = "O=C(O)c1cccc(O)c1 [3-Hydroxybenzoic acid]"
study_system = "Caco-2 cells"
observation_type = "Percentage of Digesta Value, B (2 h)"
readout_number = 5

[[record]]
compound = "COc1cc(CCC(=O)O)ccc1O [Dihydroferulic acid]"
study_system = "Caco-2 cells"
observation_type = "Percentage of Digesta Value, B (2 h)"
readout_number = 10


Shift focus to the following entry.
QUERY: Using the record for COc1cc(/C=C/C(=O)O)ccc1O [Ferulic acid] , state its measured Percentage of Digesta Value, B (2 h).
RESULT: 11

----------
test system: Caco-2 cells; assay: Caco-2 cell transport bioassay (Caco-2/HepG2 co-culture, 2 h); format: in vitro ADME, human; conditions: PRPE digesta 10% (v/v), apical chamber after 2 h
Label 0.0 if Percentage of Digesta Value, A (2 h) falls below 70%; label 1.0 in every other case.

Example cases with answers are listed next.
[[record]]
compound = "COc1cc(CCC(=O)O)ccc1O [Dihydroferulic acid]"
label_value = 1.0

[[record]]
compound = "O=C(O)CCc1ccccc1"
label_value = 0.0

[[record]]
compound = "O=C(O)CCc1ccc(O)c(O)c1 [Dihydrocaffeic acid, 3-(3′,4′-Dihydroxyphenyl)propionic acid]"
label_value = 0.0

[[record]]
compound = "COc1cc(/C=C/C(=O)O)ccc1O"
label_value = 1.0


Consider the record given below.
QUERY: Given O=C(O)c1cccc(O)c1 [3-Hydroxybenzoic acid] , state whether its Percentage of Digesta Value, A (2 h) is at least 70%.
RESULT: 0.0

----------
tested on: HepG2 cells; test: HepG2 cell metabolism bioassay (basolateral chamber, further 3 h); conditions: PRPE digesta, basolateral chamber after 3 h with HepG2 cells alone (t = 5 h), relative to basolateral value at 2 h
observation type: Percentage of Basolateral Value, B (5 h)

[[record]]
molecule = "O=C(O)c1ccccc1 [Benzoic acid]"
study_system = "HepG2 cells"
observation_type = "Percentage of Basolateral Value, B (5 h)"
result = "+"

[[record]]
molecule = "O=C(O)Cc1cccc(O)c1 [3-Hydroxyphenylacetic acid]"
study_system = "HepG2 cells"
observation_type = "Percentage of Basolateral Value, B (5 h)"
result = "-"

[[record]]
molecule = "O=C(O)CCc1ccccc1 [Phenylpropanoic acid]"
study_system = "HepG2 cells"
observation_type = "Percentage of Basolateral Value, B (5 h)"
result = "-"


----------
test system: Caco-2 cells; assay: Caco-2 cell transport bioassay (Caco-2/HepG2 co-culture, 2 h); type: in vitro ADME, human; settings: PRPE digesta 10% (v/v), basolateral chamber after 2 h
observation type: Percentage of Digesta Value, B (2 h)

[[record]]
compound = "O=C(O)Cc1cccc(O)c1 [3-Hydroxyphenylacetic acid]"
study_system = "Caco-2 cells"
observation_type = "Percentage of Digesta Value, B (2 h)"
result = "-"

[[record]]
compound = "O=C(O)CCc1ccccc1 [Phenylpropanoic acid]"
study_system = "Caco-2 cells"
observation_type = "Percentage of Digesta Value, B (2 h)"
result = "-"

[[record]]
compound = "O=C(O)c1ccccc1 [Benzoic acid]"
study_system = "Caco-2 cells"
observation_type = "Percentage of Digesta Value, B (2 h)"
result = "+"


----------
test system: Caco-2 cells; test: Caco-2 cell transport bioassay (Caco-2/HepG2 co-culture, 2 h); format: in vitro ADME, human; conditions: PRPE digesta 10% (v/v), apical chamber after 2 h
observation type: Percentage of Digesta Value, A (2 h) (%)
Give bare numbers, in %.

[[record]]
compound = "O=C(O)/C=C/c1ccc(O)cc1"
study_system = "Caco-2 cells"
uom = "%"
readout_number = 68

[[record]]
compound = "O=C(O)Cc1cccc(O)c1 [3-Hydroxyphenylacetic acid]"
study_system = "Caco-2 cells"
uom = "%"
readout_number = 70


Shift focus to the following entry.
QUERY: Using the record for O=C(O)CCc1cccc(O)c1 [3-Hydroxyphenylpropionic acid, 3-(3-Hydroxyphenyl)propionic acid] , state its measured Percentage of Digesta Value, A (2 h).
RESULT: 69
